- MEASURED TARGET: ligand binding domain of human RORγ (Homo sapiens)
- Construct: host or cells: HEK293t
- Sequence (P51449 269-508 limits assumed): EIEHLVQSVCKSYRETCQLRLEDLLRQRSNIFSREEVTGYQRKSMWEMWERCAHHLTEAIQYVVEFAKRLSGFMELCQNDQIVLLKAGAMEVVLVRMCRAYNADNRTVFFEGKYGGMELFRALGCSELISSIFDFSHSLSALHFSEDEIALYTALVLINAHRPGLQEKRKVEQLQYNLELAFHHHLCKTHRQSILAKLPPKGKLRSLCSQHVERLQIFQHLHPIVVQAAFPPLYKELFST
- METHOD DESCRIPTION: RORγ Reporter Assay (Gal4)
- Type: cell-based
- MEASUREMENT CONTEXT: HEK-293T, 1 μM test compound, HEK293t RORγ reporter cells, 24 hour; read-out: Gal4 activity range @ 1 μM (% inhibition)
Hi there, I'd appreciate the recorded inhibition at 1 µM for every entry that follows.

Bench note, ligand binding domain of human RORγ (Homo sapiens): O=C(O)C[C@@H](CCc1ccccc1)Nc1ncnc(N(Cc2ccc(C(F)(F)F)cc2)C2CC2)c1F , inhibition at 1 µM reads > 80%

Lab entry: ligand binding domain of human RORγ (Homo sapiens) assay, compound CNC(=O)CC1(CNc2ncnc(N(Cc3ccc(C(F)(F)F)cc3)C3CC3)c2F)CCOCC1 , inhibition at 1 µM = > 80%

Response field inhibition at 1 µM (ligand binding domain of human RORγ (Homo sapiens)) for item CS(=O)(=O)c1ccc(CCNc2ncnc(N(Cc3ccc(C(F)(F)F)cc3)C3CC3)c2F)cc1 : > 80%

Reported ligand binding domain of human RORγ (Homo sapiens) inhibition at 1 µM for item Cc1cccc(Cl)c1CN(c1ncnc(NCc2ccc(CC(N)=O)cc2)c1F)C1CC1 was > 50%

Bench note, ligand binding domain of human RORγ (Homo sapiens): entry NC(=O)Cc1ccc(CNc2ncnc(N(Cc3ccc(C(F)(F)F)cn3)C3CC3)c2F)cc1 , its inhibition at 1 µM = > 80%

Readout inhibition at 1 µM for CS(=O)(=O)N1[C@@H]2CC[C@H]1CC(CNc1ncnc(N(Cc3ccc(C(F)(F)F)cc3)C3CC3)c1F)C2 (some centres unmarked) , test system ligand binding domain of human RORγ (Homo sapiens), was > 80%

Entry N#CC[C@H]1CC[C@H](CNc2ncnc(N(Cc3ccc(C(F)(F)F)cc3)C3CC3)c2F)CC1 ; assay system ligand binding domain of human RORγ (Homo sapiens); inhibition at 1 µM recorded at > 80%

Recorded inhibition at 1 µM for CN(Cc1cccc(-n2cccn2)c1)c1ncnc(NCc2ccc(CC(N)=O)cc2)c1F on ligand binding domain of human RORγ (Homo sapiens) was > 80%
